biological target: Glucose transporter (Leishmania mexicana) (UniProt O61059); experiment: ST_JUDE_LEISH: Cytotoxicity at 2uM final concentration against transgenic Leishmania Mexicana promastigotes LmGT2 that are glucose transport deficient and complemented with the L. Mexicana glucose transporter 2. Activity is measured by DNA content using SYBR green in vitro; type: functional
Form field: inhibition (one value per entry).
Number only, in %; omit the unit.

Q) So what does the record say about inhibition for O=C(Nc1ccc2c(c1)CCN2C1CCN(Cc2cccc3cc[nH]c23)C1)c1ccco1 (stereo not given) ?
A) 1.83

Q) Repeat with `CCOc1ccc2c(=NN=Cc3cccc(F)c3)cc(C)[nH]c2c1`
A) 2.7

Q) Repeat with `CC1(C)NC(N)=NC(=N)N1OCCCOc1cc(Cl)cc(Cl)c1`
A) 2.47
